- Type: in vivo, mouse
- Conditions: female, NSG, mouse, tumor, iv, 40 mg/kg
Measured property: half-life (h)
Give bare numbers, in h.

Given CC(=O)O[C@H]1C(=O)[C@@]2(C)[C@H]([C@H](OC(=O)c3ccccc3)[C@]3(O)C[C@H](OC(=O)[C@H](O)[C@@H](NC(=O)c4ccccc4)c4ccccc4)C(C)=C1C3(C)C)[C@]1(OC(C)=O)CO[C@@H]1C[C@@H]2O [paclitaxel, reference compound] , state its recorded half-life.
19.1

###

- Protocol details: Maximum tolerated dose in nontumor bearing NSG mice
- Assay type: in vivo, mouse
- Conditions: NSG, mouse, in vivo, iv
Measured property: MTD at 2 weeks (mg/kg)
One number for each entry, in mg/kg.

Param item = CC(=O)O[C@H]1C(=O)[C@@]2(C)[C@H]([C@H](OC(=O)c3ccccc3)[C@]3(O)C[C@H](OC(=O)[C@H](O)[C@@H](NC(=O)c4ccccc4)c4ccccc4)C(C)=C1C3(C)C)[C@]1(OC(C)=O)CO[C@@H]1C[C@@H]2O [paclitaxel, reference compound] ; retrieve measured MTD at 2 weeks.
40
